Each recorded value in this set is attributed to PubChem BioAssay (EPA / NIEHS).

Read-out: Urokinase-type plasminogen activator receptor (uPAR), PLAUR (gene 5329)
Assay: BSK_CASM3C_uPAR: BioMAP Diversity Plus: CASM3C Assay for Urokinase-type plasminogen activator receptor (uPAR) Biomarker Activity (AID 2283054);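 also: cell-surface uPAR protein level quantified by ELISA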
Settings: primary human coronary artery smooth muscle cells; actives raise or lower the signal
Active and inactive are the calls of the source. The calls were made as follows: active = hit-call score of the fitted dose curve at least 0.9, where 1 is the maximum; inactive = score below 0.9.
value-kind: outcome

CC(C)=CCC/C(C)=C\CO ... inactive
COCCOCCOCCOC ... inactive
CC/C(=C\C(=N/O)C(N)=O)C(C)[N+](=O)[O-] (stereo not drawn) ... inactive

* * *

Read-out: Fatty acid synthase (Homo sapiens) (UniProt P49327)
Sequence (P49327 whole entry, looked up): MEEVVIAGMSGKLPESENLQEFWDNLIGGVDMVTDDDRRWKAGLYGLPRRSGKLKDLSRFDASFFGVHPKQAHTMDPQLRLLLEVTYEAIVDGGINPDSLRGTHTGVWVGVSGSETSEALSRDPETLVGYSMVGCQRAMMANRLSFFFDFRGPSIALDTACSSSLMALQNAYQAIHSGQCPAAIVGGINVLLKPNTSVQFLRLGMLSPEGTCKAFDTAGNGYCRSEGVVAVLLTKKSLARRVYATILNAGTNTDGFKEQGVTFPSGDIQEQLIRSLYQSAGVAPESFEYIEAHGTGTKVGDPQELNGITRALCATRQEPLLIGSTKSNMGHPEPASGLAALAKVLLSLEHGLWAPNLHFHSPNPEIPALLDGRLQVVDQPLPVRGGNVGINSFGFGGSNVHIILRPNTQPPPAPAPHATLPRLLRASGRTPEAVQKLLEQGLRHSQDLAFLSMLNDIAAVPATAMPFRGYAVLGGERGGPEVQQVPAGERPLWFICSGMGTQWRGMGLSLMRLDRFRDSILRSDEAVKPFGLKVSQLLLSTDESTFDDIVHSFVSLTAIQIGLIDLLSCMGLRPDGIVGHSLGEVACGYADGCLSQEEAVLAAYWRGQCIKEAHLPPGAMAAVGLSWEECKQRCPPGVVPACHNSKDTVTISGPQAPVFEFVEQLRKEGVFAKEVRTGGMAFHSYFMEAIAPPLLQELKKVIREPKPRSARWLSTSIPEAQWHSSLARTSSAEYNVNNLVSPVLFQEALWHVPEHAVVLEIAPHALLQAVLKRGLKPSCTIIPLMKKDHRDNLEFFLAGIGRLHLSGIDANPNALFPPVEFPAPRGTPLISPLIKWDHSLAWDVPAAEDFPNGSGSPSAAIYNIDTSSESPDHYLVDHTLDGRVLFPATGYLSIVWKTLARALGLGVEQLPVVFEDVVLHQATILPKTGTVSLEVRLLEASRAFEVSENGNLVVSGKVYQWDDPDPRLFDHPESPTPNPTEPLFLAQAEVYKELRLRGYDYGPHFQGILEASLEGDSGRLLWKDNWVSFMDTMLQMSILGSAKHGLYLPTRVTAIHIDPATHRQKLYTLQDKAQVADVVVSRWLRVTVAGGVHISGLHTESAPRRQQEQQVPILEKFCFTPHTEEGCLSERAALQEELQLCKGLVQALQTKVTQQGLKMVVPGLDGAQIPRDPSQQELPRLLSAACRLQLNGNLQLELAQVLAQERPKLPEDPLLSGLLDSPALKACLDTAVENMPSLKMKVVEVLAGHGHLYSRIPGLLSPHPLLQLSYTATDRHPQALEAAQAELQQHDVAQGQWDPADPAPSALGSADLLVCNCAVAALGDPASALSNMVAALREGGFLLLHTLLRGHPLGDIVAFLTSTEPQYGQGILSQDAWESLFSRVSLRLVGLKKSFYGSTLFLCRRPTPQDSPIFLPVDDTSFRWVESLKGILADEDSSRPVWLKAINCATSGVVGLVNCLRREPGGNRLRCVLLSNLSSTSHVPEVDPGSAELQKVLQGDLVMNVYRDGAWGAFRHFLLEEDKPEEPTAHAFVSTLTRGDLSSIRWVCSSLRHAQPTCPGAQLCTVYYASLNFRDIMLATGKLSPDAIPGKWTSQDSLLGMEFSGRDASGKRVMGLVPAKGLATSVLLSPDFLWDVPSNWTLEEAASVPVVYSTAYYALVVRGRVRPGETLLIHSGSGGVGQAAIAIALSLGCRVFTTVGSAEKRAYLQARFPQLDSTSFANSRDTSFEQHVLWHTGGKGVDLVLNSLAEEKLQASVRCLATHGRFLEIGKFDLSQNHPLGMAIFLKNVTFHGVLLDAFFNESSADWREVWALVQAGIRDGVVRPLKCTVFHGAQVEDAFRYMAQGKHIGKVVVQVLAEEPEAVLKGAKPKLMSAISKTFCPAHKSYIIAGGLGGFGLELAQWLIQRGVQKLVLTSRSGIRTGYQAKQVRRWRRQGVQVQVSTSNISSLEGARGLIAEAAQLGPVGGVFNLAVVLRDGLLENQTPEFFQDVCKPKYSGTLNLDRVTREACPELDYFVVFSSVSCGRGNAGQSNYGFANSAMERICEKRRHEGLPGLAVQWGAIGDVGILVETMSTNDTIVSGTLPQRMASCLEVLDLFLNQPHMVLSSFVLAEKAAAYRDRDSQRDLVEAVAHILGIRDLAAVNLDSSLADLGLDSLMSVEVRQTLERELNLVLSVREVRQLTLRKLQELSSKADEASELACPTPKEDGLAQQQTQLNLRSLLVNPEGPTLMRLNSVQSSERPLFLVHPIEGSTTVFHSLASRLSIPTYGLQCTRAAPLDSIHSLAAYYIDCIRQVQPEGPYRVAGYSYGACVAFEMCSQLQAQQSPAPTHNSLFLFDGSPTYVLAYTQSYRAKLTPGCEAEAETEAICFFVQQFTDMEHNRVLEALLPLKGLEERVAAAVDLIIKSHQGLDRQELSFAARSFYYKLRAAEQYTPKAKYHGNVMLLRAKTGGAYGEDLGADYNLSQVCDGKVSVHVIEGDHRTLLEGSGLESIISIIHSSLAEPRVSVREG
Assay: LTEA_HepaRG_FASN: Life Technologies and Expression Analysis (LTEA) Assay for Fatty Acid Synthase (FASN) using HepaRG (AID 2283448)
Conditions: mRNA level, 48 h; actives raise or lower the signal
The source made the active and inactive calls. The calls were made as follows: active = hit-call score of the fitted dose curve at least 0.9, where 1 is the maximum; inactive = score below 0.9.
Response enum: Y for active, N for inactive

Example entries and their recorded answers appear below.
CC(=O)c1ccc2c(c1)[C@H](NC(=O)c1ccc(F)cc1)[C@@H](O)C(C)(C)O2 ... N
CC(O)CN(CCN(CC(C)O)CC(C)O)CC(C)O (stereo not given) ... Y
CCOCCO ... N
Nc1ccc(Nc2ccccc2)cc1 ... N
CCN(C(=O)c1cc(C)cc(OC[C@H](C)Nc2ccncc2)c1)C(C)C ... Y
COc1ccc(/C=C/S(=O)(=O)NC(=O)c2ccc(C)cc2Cl)cc1 ... N
Clc1nc(Cl)c(Cl)c(Cl)c1Cl ... N
COc1ccc2sc(C(=O)Nc3nnn[nH]3)c(OC(C)C)c2c1 ... Y
CC(C)CC(C)(O)C#CC(C)(O)CC(C)C (stereo not given) ... N
CC(C)c1cccc(C(C)C)c1N1C(=O)c2ccc(O)cc2C1=O ... Y

Hi, sorry to bother you, what did the test record for `CC(C)(O)c1coc(S(=O)(=O)NC(=O)Nc2c3c(cc4c2CCC4)CCC3)c1` ?
N

Hi, sorry to bother you, what did the test record for `COCCOCCOCCOC` ?
N

Hey, what did the test say about `CCc1cc(SCc2sc(-c3ccc(C(F)(F)F)cc3)nc2CN2CCN(c3ccc(OC)cc3)CC2)ccc1OCC(=O)O` ?
Y
